The reader will find reported viability values listed item by item below.
- Test: HUVEC growth inhibition – cell-based, human, primary screen (AID 575);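 also: 100% = median of untreated cell wells with 0.1% DMSO on each plate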
- Assay Conditions: HUVEC proliferation, CellTiter-Glo luminescence, 72 h; at 10 µM; stronger effect = lower value
# output: bare number, implied unit %

Substance Smiles	viability, %
CCOC(=O)Cc1csc(NC(=O)CN(C)S(=O)(=O)c2ccc3c(c2)CCC(=O)N3)n1	97.5

Lookup: Report viability for Cc1nn(-c2ccccc2)c(Cl)c1C(=O)NCC(=O)O please.
Found: 105

Lookup: Report viability for CN1C(=O)CSc2ccc(NC(=O)N3CCN(c4ccccn4)CC3)cc21 please.
Found: 58.2

Lookup: Report viability for CC(C)[C@H](NC(=O)OC(C)(C)C)c1nnc(SCc2cccc(F)c2)o1 please.
Found: 107

----------
The reader will find reported viability values listed item by item below.
- Test: reducers of endogenous Her2 protein level, primary screen, SKBR3 breast tumor cells, AlphaScreen, ATP viability (AID 461);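 also: percent of carrier control wells set as 100% viability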
- Assay Conditions: 18-24 h, measured here: SKBR3 viability, ATP luminescence, at 10 µM
# output: bare number, implied unit %

See these solved cases before continuing.
Molecule	viability, %
COc1cc(C2CC(=O)NC3=C2C(=O)CC(C)(C)C3)ccc1O (configuration not stated)	89.5
CCN(CC)S(=O)(=O)c1ccc2c(c1)nc(SCC(=O)NC1CC1)n2-c1ccccc1OC	92.5
CC(=O)CCc1c(C)[nH]c2ccccc2c1=O	88.5
O=C(CSc1nnc2scc(-c3ccccc3)n12)N1CCN(Cc2ccccc2)CC1	89

Lookup: Report viability for O=C(NCc1cccnc1)c1ccc(=O)oc1 please.
Found: 89.5

Lookup: Report viability for Cc1ccc(C(c2nnnn2CCC(C)C)N2CCN(C)CC2)cc1 (configuration not stated) please.
Found: 90.5

Lookup: Report viability for Cc1ccc2nc(SCC(=O)NCc3ccco3)c(C#N)cc2c1 please.
Found: 90.5

----------
- Test: growth inhibitors of H69AR lung tumor, primary screen, human, duplicate replicates (AID 580);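 also: 100% = mean luminescence of untreated wells and 0% = no signal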
- Assay Conditions: H69AR lung tumor cells viability, ATP luminescence, 72 h; at 10 µM; stronger effect = lower value
The reader will find reported viability values listed item by item below.
# output: bare number, implied unit %

Compound	viability [%]
OCC#CCSc1nnc(-c2ccccc2Br)o1	86.2

Lookup: Report viability for Oc1c(Cl)cc(Cl)cc1CNc1ccc(Br)cn1 please.
Found: 93.2

Lookup: Report viability for Cc1cnc(C(=O)OCC(=O)Nc2ccc(Oc3ccccc3)cc2)cn1 please.
Found: 91.9

Lookup: Report viability for COc1ccc(-c2nnc(SCC(=O)c3cc(C)n(Cc4cccs4)c3C)o2)cc1 please.
Found: 87.5

----------
- Test: 384-well plate pilot, post-Golgi transport modulator project, inhibition of yeast transport mutant growth (AID 636)
- Assay Conditions: absorbance 615 nm, about 18 h, stronger effect = higher value
Reported Property: inhibition (%)
# output: bare number, implied unit %

Compound	Result Unit	inhibition
Cc1ccccc1NC(=O)N1C2CCCC1CC(NC(=O)C1CC1)C2 (configuration not stated)	%	-7.07

Lookup: Report inhibition for Nc1nc(-c2ccccc2Br)cs1 please.
Found: -0.66

Lookup: Report inhibition for CC1=C(C#N)C(c2ccoc2)C(C(=O)OCc2ccccc2)=C(N)S1 (configuration not stated) please.
Found: -3.95

Lookup: Report inhibition for C=CCSc1nc2c(c(=O)[nH]c(=O)n2C)n1C(C)C please.
Found: -2.63

Lookup: Report inhibition for COCCCNC(=O)C1CCCN(C(=O)Nc2ccc(OC)cc2)C1 (configuration not stated) please.
Found: -7.03
